System: CAKI-1 renal
protocol-notes: NCI tumour cell line growth inhibition, 48 h; in the data active means GI50 below about 0.43 µM; inactive means the rest
One label from this list, please: yes = active, no = inactive

These recorded examples may help you get a feel for the data.
INSERT INTO results (compound, cat) VALUES
  ('COc1ccc(C(O)c2cc3c(N)c(C(=O)Nc4cccc(Br)c4)sc3nc2C)cc1 (stereo not given)', 'yes'),
  ('O=C(/C=C/c1ccco1)Nc1ncc(Cc2ccc(F)cc2)s1', 'yes'),
  ('Oc1ccccc1-n1c(-c2ccccc2)ccc1-c1ccccc1', 'no'),
  ('COC(=O)CCC1=C(C)c2cc3[n-]c(cc4nc(cc5[n-]c(cc1n2)c(CCC(=O)OC)c5C)C=C4C)cc3C.[Cd+2]', 'no'),
  ('C=C(C)[C@H]1CC/C(C)=C/CCC(C)C(=O)CC/C(CO)=C\[C@@H]1O (stereo not given in full)', 'no');

Incoming: Called result for O=C(/C=C/c1cccc(Cl)c1)c1ccc(Cl)cc1Cl
Outgoing: no

Incoming: Called result for O=Nc1c(O)ccc2ccccc12
Outgoing: no

Incoming: Called result for COc1ccc(/C=C2\N=C3SC=C(N)N3C2=O)cc1
Outgoing: no

Incoming: Called result for CC(C)(C)CC(C)(C)c1ccc(OCCOCCSC(=N)N)cc1
Outgoing: no

Incoming: Called result for COc1ccc(/C=C\c2cc(OC)c(OC)c(OC)c2)c(NS(=O)(=O)c2ccc(C)cc2)c1O
Outgoing: yes

Each recorded value in this set is attributed to PubChem BioAssay (NCI).
